system: ACP with the sulfated substrate; assay: TE point mutant activity assay (liberation of holo ACP, HPLC); assay type: biochemical, Lyngbya majuscula; settings: relative to wild type CurM TE and free hydrolysis without enzyme, quenched after 1 min
We begin with a simple list: items and their reported % Activity.

# MOLECULE, % Activity, %
data = [
    ("R205E: CurM TE point mutant R205E (protein) MEEKFLEFGGNQICLCSWGSPEHPVVLCIHGILEQGLAWQEVALPLAAQGYRVVAPDLFGHGRSSHLEMVTSYSSLTFLAQIDRVIQELPDQPLLLVGHSMGAMLATAIASVRPKKIKELILVELPLPAEESKKESAVNQLTTCLDYLSSTPQHPIFPDVATAASRLRQAIPSLSEEFSYILAQRITQPNQGGVRWSWDAIIRTESILGLNNLPGGRSQYLEMLKSIQVPTTLVYGDSSKLNRPEDLQQQKMTMTQAKRVFLSGGHNLHIDAAAALASLILTS", 2.3),
    ("H266R: CurM TE control mutation in the catalytic triad (protein) MEEKFLEFGGNQICLCSWGSPEHPVVLCIHGILEQGLAWQEVALPLAAQGYRVVAPDLFGHGRSSHLEMVTSYSSLTFLAQIDRVIQELPDQPLLLVGHSMGAMLATAIASVRPKKIKELILVELPLPAEESKKESAVNQLTTCLDYLSSTPQHPIFPDVATAASRLRQAIPSLSEEFSYILAQRITQPNQGGVRWSWDAIIRTRSILGLNNLPGGRSQYLEMLKSIQVPTTLVYGDSSKLNRPEDLQQQKMTMTQAKRVFLSGGRNLHIDAAAALASLILTS", 1.4),
]
